- MEASUREMENT TARGET: IL-17A/A (Homo sapiens, UniProt Q16552)
- Sequence (Q16552 24-155): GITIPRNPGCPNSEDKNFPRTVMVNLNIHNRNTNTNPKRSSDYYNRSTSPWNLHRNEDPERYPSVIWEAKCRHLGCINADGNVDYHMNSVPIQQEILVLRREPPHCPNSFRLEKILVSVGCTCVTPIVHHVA
- METHOD SUMMARY: IL-17A/A HEK-Blue cell assay (SEAP reporter)
- CONDITION PARAMETERS: HEK-Blue IL-17A reporter cells, IL17A/A 5 ng/mL, 20 hours, SEAP read at A630; read-out: HEK-Blue IL17AA (IC50 for IL-17A/A inhibition)
compounds and their reported IC50
ENDPOINT NAME: IC50

COMPOUND	MEASUREMENT TARGET	ENDPOINT NAME	RECORDED VALUE
CCn1nccc1C(=O)N[C@H](c1cn2nc(C[C@H]3C[C@@H](C(F)(F)F)CNC3=O)c(N(C)C)nc2n1)[C@@H]1CCCC(F)(F)C1 [Compound 119]	IL-17A/A (Homo sapiens, UniProt Q16552)	IC50	< 100 nM
CCn1nccc1C(=O)N[C@H](c1cn2nc(C[C@H]3C[C@@H](C(F)(F)F)CNC3=O)cnc2n1)C1CCC(F)(F)CC1 [Compound 27]	IL-17A/A (Homo sapiens, UniProt Q16552)	IC50	< 100 nM
O=C(N[C@H](c1cn2nc(C[C@H]3C[C@@H](C(F)(F)F)CNC3=O)c(C3CCOCC3)nc2n1)C1CCC(F)(F)CC1)c1ccnn1CC(F)(F)F [Compound 186]	IL-17A/A (Homo sapiens, UniProt Q16552)	IC50	< 100 nM
CCn1nccc1C(=O)N[C@H](c1cn2nc(C[C@H]3C[C@@H](C(F)(F)F)CNC3=O)c(C3CCOC3)nc2n1)[C@H]1CCCC(F)(F)C1 (single isomer, unassigned) [Compound 203]	IL-17A/A (Homo sapiens, UniProt Q16552)	IC50	< 100 nM
CCn1nccc1C(=O)N[C@H](c1cn2nc(CC3C[C@@H](C(F)(F)F)CNC3=O)c(N3CCOCC3)nc2n1)C1CCC(F)(F)CC1 (stereo partly shown) [Compound 47]	IL-17A/A (Homo sapiens, UniProt Q16552)	IC50	< 100 nM
CCn1nccc1C(=O)N[C@H](c1cn2nc(C[C@H]3C[C@@H](C(F)(F)F)CNC3=O)c(C3CCOC3)nc2n1)[C@H]1CC[C@H](C)CC1 (single isomer, unassigned) [Compound 138]	IL-17A/A (Homo sapiens, UniProt Q16552)	IC50	< 100 nM
CCn1nccc1C(=O)N[C@H](c1cn2nc(C[C@H]3C[C@@H](C)CNC3=O)c(C(C)C)nc2n1)C1CCC(F)(F)CC1 [Compound 389]	IL-17A/A (Homo sapiens, UniProt Q16552)	IC50	100 to 1000 nM
CCn1nccc1C(=O)N[C@H](c1cn2nc(C[C@H]3C[C@@H](C(F)(F)F)CNC3=O)c(CN3CCC(F)(F)C3)nc2n1)C1CCC(F)(F)CC1 [Compound 333]	IL-17A/A (Homo sapiens, UniProt Q16552)	IC50	< 100 nM
CCc1nonc1C(=O)N[C@H](c1cn2nc(C[C@H]3C[C@@H](C)CNC3=O)c(C3CCOCC3)nc2n1)C1CCC(F)(F)CC1 [Compound 393]	IL-17A/A (Homo sapiens, UniProt Q16552)	IC50	100 to 1000 nM
CCn1nccc1C(=O)N[C@H](c1cn2nc(C[C@@H]3CC(F)(F)CNC3=O)c(C3CCOCC3)nc2n1)C1CCC(F)(F)CC1 [Compound 222]	IL-17A/A (Homo sapiens, UniProt Q16552)	IC50	< 100 nM
